Origin of values: patent US9695155B2

Parameter: Plant response rating, Nutsedge, Yellow. Scope: all listed entries.
system: yellow nutsedge; test: Test C postemergence; format: in vivo, Cyperus esculentus; conditions: 125 g ai/ha, postemergence; visual rating, scale 0 to 100 (0 no effect, 100 complete control)
Lab note: jot the number down without any unit.

Completed entries (count: 3):
{"columns": ["COMPOUND STRUCTURE", "EXPERIMENTAL TARGET", "OBSERVED PROPERTY", "OBS VALUE"],
 "data": [
  ["FC(F)(F)c1cnn(-c2c(Cl)cccc2Oc2ncc(Cl)cn2)c1", "yellow nutsedge", "Plant response rating, Nutsedge, Yellow", 20],
  ["N#Cc1cnn(-c2c(C#N)cccc2Oc2ncc(F)cn2)c1", "yellow nutsedge", "Plant response rating, Nutsedge, Yellow", 5],
  ["FCc1cn(-c2c(F)cccc2Oc2ncc(Cl)cn2)nn1", "yellow nutsedge", "Plant response rating, Nutsedge, Yellow", 10]
]}

Now turn to the next compound.
Query Clc1cnc(Oc2cccc(Br)c2-n2cc(Br)nn2)nc1 yields Plant response rating, Nutsedge, Yellow of 10

* * *

system: oilseed rape; assay: Test C postemergence; format: in vivo, Brassica napus; details: Postemergence, 62 g ai/ha; scale 0 to 100 (0 no effect, 100 complete control)
OBSERVED PROPERTY: Plant response rating, Oilseed Rape
Lab note: jot the number down without any unit.

{"columns": ["COMPOUND", "OBS VALUE"],
 "data": [
  ["Clc1cnc(Oc2cccc(Br)c2-n2cc(Br)nn2)nc1 [Compound 129]", 60],
  ["N#Cc1cccc(Oc2ncc(F)cn2)c1-n1cc(Cl)cn1 [Compound 73]", 30],
  ["Cc1cnc(Oc2cccc(C#N)c2-n2cc(I)cn2)nc1 [Compound 136]", 5]
]}

Now turn to the next compound.
Query N#Cc1cn(-c2c(Br)cccc2Oc2ncc(Cl)cn2)nn1 [Compound 116] yields Plant response rating, Oilseed Rape of 10

* * *

system: blackgrass; experiment: Test A postemergence; format: in vivo, Alopecurus myosuroides; conditions: 500 g ai/ha, 0 to 100 scale where 0 is no effect and 100 is complete control
OBSERVED PROPERTY: Plant response rating, Blackgrass
Lab note: jot the number down without any unit.

{"columns": ["COMPOUND STRUCTURE", "Plant response rating, Blackgrass"],
 "data": [
  ["Clc1cnc(Oc2cccc(Br)c2-n2cc(Br)nn2)nc1", 90],
  ["Cc1cnc(Oc2cccc(C#N)c2-n2cc(I)cn2)nc1", 100],
  ["CCCc1cnc(Oc2cccc(C#N)c2-n2cc(Br)cn2)nc1", 0],
  ["N#Cc1cccc(Oc2ncc(Br)cn2)c1-n1cc(I)cn1", 100],
  ["CCOc1cnn(-c2c(C#N)cccc2Oc2ncc(F)cn2)c1", 90]
]}

Now turn to the next molecule.
Query CS(=O)(=O)c1cccc(Oc2ncc(Cl)cn2)c1-n1cc(Br)cn1 yields Plant response rating, Blackgrass of 0

* * *

system: fall panicum; assay: Test E postemergence; format: in vivo, Panicum dichotomiflorum; conditions: Panicum dichotomiflorum, post-emergence; postemergence; 16 g ai/ha; scale 0 to 100, 0 no effect, 100 complete control; read-out: Plant response rating, Panicum, Fall
OBSERVED PROPERTY: pest or weed control at 16 g/ha
A complete answer gives the number and then names the unit.

{"columns": ["COMPOUND", "OBSERVED PROPERTY", "OBS VALUE"],
 "data": [
  ["N#Cc1cccc(Oc2ncc(Br)cn2)c1-n1cc(C(F)(F)F)cn1 [Compound 59]", "pest or weed control at 16 g/ha", "10%"],
  ["N#Cc1cccc(Oc2ncc(Cl)cn2)c1-n1cc(C(F)(F)F)cn1 [Compound 58]", "pest or weed control at 16 g/ha", "20%"],
  ["Fc1cnc(Oc2ccccc2-n2cc(Br)cn2)nc1 [Compound 10]", "pest or weed control at 16 g/ha", "0%"]
]}

Now turn to the next compound.
Reading of pest or weed control at 16 g/ha for Clc1cnc(Oc2ccccc2-n2cc(Br)cn2)nc1 [Compound 7] with fall panicum: 0%

* * *

Parameter: Velvetleaf plant response rating. Scope: all listed entries.
test system: velvetleaf; assay: Test A preemergence; type: in vivo, Abutilon theophrasti; conditions: 500 g ai/ha, 0 to 100 scale, 0 no effect, 100 complete control, approx. 10 days
Lab note: jot the number down without any unit.

{"columns": ["COMPOUND STRUCTURE", "EXPERIMENTAL TARGET", "Velvetleaf plant response rating"],
 "data": [
  ["N#Cc1cccc(Oc2ncc(F)cn2)c1-n1cc(Cl)cn1", "velvetleaf", 100]
]}

Query FC(F)c1cnn(-c2ccccc2Oc2ncc(Br)cn2)c1 yields Velvetleaf plant response rating of 100

Query Cc1ccn(-c2ccccc2Oc2ncc(Cl)cn2)n1 yields Velvetleaf plant response rating of 20

Query Cc1ccc(Oc2ncc(Cl)cn2)c(-n2cc(Br)cn2)c1 yields Velvetleaf plant response rating of 70

Query N#Cc1cccc(Oc2ncc(F)cn2)c1-n1cc(Br)cn1 yields Velvetleaf plant response rating of 100

* * *

Parameter: Plant response rating, Wheat. Scope: all listed entries.
test system: wheat; test: Test A postemergence; type: in vivo, Triticum aestivum; details: 500 g ai/ha, 0 to 100 scale, 0 no effect, 100 complete control
Lab note: jot the number down without any unit.

Completed entries (count: 2):
{"columns": ["COMPOUND", "Plant response rating, Wheat"],
 "data": [
  ["FC(F)(F)c1cnc(Oc2ccccc2-n2cc(C(F)(F)F)cn2)nc1 [Compound 17]", 50],
  ["FC(F)(F)c1ccn(-c2ccccc2Oc2ncc(Br)cn2)n1 [Compound 1]", 0]
]}

Query Cc1ccn(-c2ccccc2Oc2ncc(Cl)cn2)n1 [Compound 36] yields Plant response rating, Wheat of 0

Query Cc1nn(-c2ccccc2Oc2ncc(Cl)cn2)cc1Br [Compound 37] yields Plant response rating, Wheat of 0

Query Fc1cnc(Oc2ccccc2-n2cc(Cl)cn2)nc1 [Compound 11] yields Plant response rating, Wheat of 20

* * *

system: speedwell; experiment: Test D postemergence; format: in vivo, Veronica persica; details: Veronica persica, post-emergence, 125 g ai/ha, scale 0 to 100 (0 no effect, 100 complete control), read-out: Plant response rating, Speedwell
From the text: […]
Parameter: pest or weed control at 125 g/ha. Scope: all listed entries.
The answer is to be given in %; state only the numeric part.

{"columns": ["COMPOUND STRUCTURE", "READOUT UNITS", "OBS VALUE"],
 "data": [
  ["FC(F)(F)COc1cnn(-c2ccccc2Oc2ncc(Cl)cn2)c1", "%", 75]
]}

Query Fc1cccc(Oc2ncc(Cl)cn2)c1-n1cc(Br)cn1 yields pest or weed control at 125 g/ha of 100

Query FC(F)(F)c1cn(-c2ccccc2Oc2ncc(Cl)cn2)nn1 yields pest or weed control at 125 g/ha of 100

Query N#Cc1cccc(Oc2ncc(Br)cn2)c1-n1cc(C(F)(F)F)cn1 yields pest or weed control at 125 g/ha of 100

* * *

tested on: large (Lg) crabgrass; experiment: Test A preemergence; assay type: in vivo, Digitaria sanguinalis; conditions: 500 g ai/ha, 0 to 100 scale, 0 no effect, 100 complete control, approx. 10 days
Parameter: Crabgrass, Large plant response rating. Scope: all listed entries.
Lab note: jot the number down without any unit.

Completed entries (count: 2):
{"columns": ["COMPOUND STRUCTURE", "Crabgrass, Large plant response rating"],
 "data": [
  ["CC(C)(C)c1ccn(-c2ccccc2Oc2ncc(Br)cn2)n1", 60],
  ["Cc1nn(-c2ccccc2Oc2ncc(Cl)cn2)cc1Cl", 90]
]}

Now turn to the next compound.
Query FC(F)(F)c1ccn(-c2ccccc2Oc2ncc(Br)cn2)n1 yields Crabgrass, Large plant response rating of 100

* * *

test system: ducksalad; assay: Test C flooded paddy test; type: in vivo, Heteranthera limosa; details: Flood, 62 g ai/ha; scale 0 to 100 (0 no effect, 100 complete control), 13 to 15 days
OBSERVED PROPERTY: Plant response rating, Ducksalad
Lab note: jot the number down without any unit.

Query N#Cc1cnn(-c2c(Oc3ncc(Cl)cn3)cccc2C(F)F)c1 yields Plant response rating, Ducksalad of 40

Query Brc1cnc(Oc2ccccc2-n2cc(Br)cn2)nc1 yields Plant response rating, Ducksalad of 40

Query FCc1cccc(Oc2ncc(Br)cn2)c1-n1cc(C(F)(F)F)cn1 yields Plant response rating, Ducksalad of 40

* * *

Parameter: Plant response rating, Barnyardgrass. Scope: all listed entries.
test system: barnyardgrass; test: Test B flooded paddy test; format: in vivo, Echinochloa crus-galli; settings: Flood, 250 g ai/ha; 0 to 100 scale where 0 is no effect and 100 is complete control
Lab note: jot the number down without any unit.

Completed entries (count: 3):
{"columns": ["COMPOUND STRUCTURE", "EXPERIMENTAL TARGET", "OBS VALUE"],
 "data": [
  ["N#Cc1cccc(Oc2ncc(F)cn2)c1-n1cc(Cl)cn1", "barnyardgrass", 0],
  ["Clc1cnc(Oc2cccc(-c3ccccc3)c2-n2cc(Br)cn2)nc1", "barnyardgrass", 0],
  ["FC(F)c1cccc(Oc2ncc(Br)cn2)c1-n1cc(Br)cn1", "barnyardgrass", 20]
]}

Reading of Plant response rating, Barnyardgrass for CCOc1cnn(-c2c(C#N)cccc2Oc2ncc(F)cn2)c1 with barnyardgrass: 10

Reading of Plant response rating, Barnyardgrass for Clc1cnc(Oc2cccc(Br)c2-n2cc(Br)cn2)nc1 with barnyardgrass: 0

Reading of Plant response rating, Barnyardgrass for FC(F)(F)COc1cnn(-c2c(Br)cccc2Oc2ncc(Cl)cn2)c1 with barnyardgrass: 0

Reading of Plant response rating, Barnyardgrass for CC(C)Oc1cnn(-c2c(C#N)cccc2Oc2ncc(Br)cn2)c1 with barnyardgrass: 0

Reading of Plant response rating, Barnyardgrass for CCOc1cn(-c2c(Br)cccc2Oc2ncc(Cl)cn2)nn1 with barnyardgrass: 0
